- Tested system: acetylcholine receptor
- Assay: SPR, receptor immobilized, peptide 10 uM
Readout type: Binding affinity (RU)
Numbers only, in RU.

Example entries begin here.
binder="RKWQRR [6mer-1-194]" quantity_unit=RU measured_number=144
binder="KYMAKK [6mer-2-895]" quantity_unit=RU measured_number=28

Batch lookup, Binding affinity (RU) per entry.
1. KDWDRK [6mer-2-840]
2. KTWPK [5mer-764]

OUT:
[15, 19]

Batch lookup, Binding affinity (RU) per entry.
1. KKSYSK [6mer-1-189]
2. RFSFKR [6mer-2-846]
3. RACFR [5mer-1082]

OUT:
1. 137
2. 30
3. 11

Batch lookup, Binding affinity (RU) per entry.
1. KNWVR [5mer-796]
2. KANAR [5mer-782]
3. RKKFKK [6mer-2-808]
4. KYTGR [5mer-1079]
5. KMTMKK [6mer-2-884]
6. KKQVQK [6mer-1-199]
7. KYPPR [5mer-779]
8. KKPFR [5mer-770]

OUT:
[17, 32, 21, 31, 11, 151, 21, 11]

Batch lookup, Binding affinity (RU) per entry.
1. RRVIQR [6mer-1-160]
2. RNTAKK [6mer-2-849]
3. RKLRCR [6mer-1-148]
4. REDFRR [6mer-2-837]
5. KNWGRR [6mer-2-873]

OUT:
1: 149; 2: 13; 3: 146; 4: 32; 5: 11
